Test system: Candida strains (C. albicans, C. glabrata, C. krusei)
assay_summary: Anti-Candida assay, overall result in words
Format: cell-based, Candida spp
test_conditions: standard culture conditions, broth culture medium
Where a SMILES comes first, the peptide text is derived from it.
parameter_measured: antimicrobial / anti-Candida activity (in words)

CC(C)[C@H](NC(=O)[C@H](Cc1ccccc1)NC(=O)[C@H](CCCCN)NC(=O)[C@@H]1CCC[C@H]1NC(=O)[C@H](Cc1c[nH]c2ccccc12)NC(=O)[C@H](CCCNC(=N)N)NC(=O)[C@@H](Cc1ccc2ccccc2c1)NC(=O)[C@@H](N)Cc1c[nH]cn1)C(N)=O [Peptide 12] (HELM PEPTIDE1{H.[O=C([C@@H](Cc1ccc2ccccc2c1)N[*:1])[*:2]].R.W.[O=C([C@@H]1CCC[C@H]1N[*:1])[*:2]].K.F.V.[am]}$$$$V2.0)    no anti-Candida activity
CC(C)[C@H](NC(=O)[C@H](Cc1ccccc1)NC(=O)[C@H](CCCCN)NC(=O)CCNC(=O)[C@H](Cc1c[nH]c2ccccc12)NC(=O)[C@H](CCCNC(=N)N)NC(=O)[C@@H](Cc1ccc2ccccc2c1)NC(=O)[C@@H](N)Cc1c[nH]cn1)C(N)=O [Peptide 11] (HELM PEPTIDE1{H.[O=C([C@@H](Cc1ccc2ccccc2c1)N[*:1])[*:2]].R.W.[bAla].K.F.V.[am]}$$$$V2.0)    no anti-Candida activity

###

Tested on: C. glabrata
Assay type: cell-based, Candida glabrata
test_conditions: 48 h
Where a SMILES comes first, the peptide text is derived from it.
This listing pairs compounds with measured MIC 90.

CC(C)[C@H](NC(=O)[C@H](Cc1ccccc1)NC(=O)[C@H](CCCCN)NC(=O)[C@H](Cc1ccccc1)NC(=O)[C@H](Cc1c[nH]c2ccccc12)NC(=O)[C@H](CCCNC(=N)N)NC(=O)[C@@H](Cc1ccc2ccccc2c1)NC(=O)[C@@H](N)Cc1c[nH]cn1)C(N)=O [Peptide 9] (HELM PEPTIDE1{H.[O=C([C@@H](Cc1ccc2ccccc2c1)N[*:1])[*:2]].R.W.F.K.F.V.[am]}$$$$V2.0)    >100 µM

Give MIC 90 only, for CC(C)[C@H](NC(=O)[C@H](Cc1ccccc1)NC(=O)[C@H](CCCCN)NC(=O)C1(NC(=O)[C@H](Cc2c[nH]c3ccccc23)NC(=O)[C@H](CCCNC(=N)N)NC(=O)[C@@H](Cc2ccc3ccccc3c2)NC(=O)[C@@H](N)Cc2c[nH]cn2)CCCC1)C(N)=O [Peptide 6] (HELM PEPTIDE1{H.[O=C([C@@H](Cc1ccc2ccccc2c1)N[*:1])[*:2]].R.W.[O=C(C1(N[*:1])CCCC1)[*:2]].K.F.V.[am]}$$$$V2.0) , using C. glabrata data.
>100 µM

###

Tested on: HaCaT keratinocyte cell line
assay_summary: Cytotoxic activity, MTT colorimetric method
Format: cell-based, human
test_conditions: highest peptide concentration used (100 µM), 24 h
Where a SMILES comes first, the peptide text is derived from it.
parameter_measured: cell death / killing of human keratinocytes

In one line, give reported cell death / killing of human keratinocytes of the entry CC(C)[C@H](NC(=O)[C@H](Cc1ccccc1)NC(=O)[C@H](CCCCN)NC(=O)CNC(=O)[C@H](Cc1c[nH]c2ccccc12)NC(=O)[C@H](CCCNC(=N)N)NC(=O)[C@@H](Cc1ccc2ccccc2c1)NC(=O)[C@@H](N)Cc1c[nH]cn1)C(N)=O [DNal, reference compound] (HELM PEPTIDE1{H.[O=C([C@@H](Cc1ccc2ccccc2c1)N[*:1])[*:2]].R.W.G.K.F.V.[am]}$$$$V2.0) .
50–100%

###

Tested on: Bacillus megaterium Bm11
Assay type: cell-based
test_conditions: Bacillus Bm11, 18 h
Where a SMILES comes first, the peptide text is derived from it.
parameter_measured: MIC 100
Note: state the figure and append the unit.

Look over these answered cases.
CC(C)[C@H](NC(=O)[C@H](Cc1ccccc1)NC(=O)[C@H](CCCCN)NC(=O)C1(NC(=O)[C@H](Cc2c[nH]c3ccccc23)NC(=O)[C@H](CCCNC(=N)N)NC(=O)[C@@H](Cc2ccc3ccccc3c2)NC(=O)[C@@H](N)Cc2c[nH]cn2)CC1)C(N)=O [Peptide 4] (HELM PEPTIDE1{H.[O=C([C@@H](Cc1ccc2ccccc2c1)N[*:1])[*:2]].R.W.[O=C(C1(N[*:1])CC1)[*:2]].K.F.V.[am]}$$$$V2.0)    6.25 µM
CC(C)[C@H](NC(=O)[C@H](Cc1ccccc1)NC(=O)[C@H](CCCCN)NC(=O)CNC(=O)[C@H](Cc1c[nH]c2ccccc12)NC(=O)[C@H](CCCNC(=N)N)NC(=O)[C@@H](Cc1ccc2ccccc2c1)NC(=O)[C@@H](N)Cc1c[nH]cn1)C(N)=O [DNal, reference compound] (HELM PEPTIDE1{H.[O=C([C@@H](Cc1ccc2ccccc2c1)N[*:1])[*:2]].R.W.G.K.F.V.[am]}$$$$V2.0)    6 µM
CC(C)[C@H](NC(=O)[C@H](Cc1ccccc1)NC(=O)[C@H](CCCCN)NC(=O)[C@H](CC1CCCCC1)NC(=O)[C@H](Cc1c[nH]c2ccccc12)NC(=O)[C@H](CCCNC(=N)N)NC(=O)[C@@H](Cc1ccc2ccccc2c1)NC(=O)[C@@H](N)Cc1c[nH]cn1)C(N)=O [Peptide 10] (HELM PEPTIDE1{H.[O=C([C@@H](Cc1ccc2ccccc2c1)N[*:1])[*:2]].R.W.[Cha].K.F.V.[am]}$$$$V2.0)    3.125 µM
CC(C)[C@H](NC(=O)[C@H](Cc1ccccc1)NC(=O)[C@H](CCCCN)NC(=O)C1(NC(=O)[C@H](Cc2c[nH]c3ccccc23)NC(=O)[C@H](CCCNC(=N)N)NC(=O)[C@@H](Cc2ccc3ccccc3c2)NC(=O)[C@@H](N)Cc2c[nH]cn2)Cc2ccccc2C1)C(N)=O [Peptide 8] (HELM PEPTIDE1{H.[O=C([C@@H](Cc1ccc2ccccc2c1)N[*:1])[*:2]].R.W.[O=C(C1(N[*:1])Cc2ccccc2C1)[*:2]].K.F.V.[am]}$$$$V2.0)    1.56 µM
CC(C)[C@H](NC(=O)[C@H](Cc1ccccc1)NC(=O)[C@H](CCCCN)NC(=O)[C@@H](NC(=O)[C@H](Cc1c[nH]c2ccccc12)NC(=O)[C@H](CCCNC(=N)N)NC(=O)[C@@H](Cc1ccc2ccccc2c1)NC(=O)[C@@H](N)Cc1c[nH]cn1)C(C)(C)C)C(N)=O [Peptide 3] (HELM PEPTIDE1{H.[O=C([C@@H](Cc1ccc2ccccc2c1)N[*:1])[*:2]].R.W.[CC(C)(C)[C@H](N[*:1])C(=O)[*:2]].K.F.V.[am]}$$$$V2.0)    6.25 µM

Moving on to the next compound.
In one line, give reported MIC 100 of the entry CC(C)[C@H](NC(=O)[C@H](Cc1ccccc1)NC(=O)[C@H](CCCCN)NC(=O)[C@H](Cc1ccccc1)NC(=O)[C@H](Cc1c[nH]c2ccccc12)NC(=O)[C@H](CCCNC(=N)N)NC(=O)[C@@H](Cc1ccc2ccccc2c1)NC(=O)[C@@H](N)Cc1c[nH]cn1)C(N)=O [Peptide 9] (HELM PEPTIDE1{H.[O=C([C@@H](Cc1ccc2ccccc2c1)N[*:1])[*:2]].R.W.F.K.F.V.[am]}$$$$V2.0) .
3.125 µM

###

Test system: Escherichia coli D21
Format: cell-based
test_conditions: D21, 18 h
Where a SMILES comes first, the peptide text is derived from it.
This listing pairs molecules with measured MIC 100.
Quick reminder: number only, in µM, skip the unit.

Look over these answered cases.
CC(C)[C@H](NC(=O)[C@H](Cc1ccccc1)NC(=O)[C@H](CCCCN)NC(=O)[C@@H](NC(=O)[C@H](Cc1c[nH]c2ccccc12)NC(=O)[C@H](CCCNC(=N)N)NC(=O)[C@@H](Cc1ccc2ccccc2c1)NC(=O)[C@@H](N)Cc1c[nH]cn1)C(C)(C)C)C(N)=O [Peptide 3] (HELM PEPTIDE1{H.[O=C([C@@H](Cc1ccc2ccccc2c1)N[*:1])[*:2]].R.W.[CC(C)(C)[C@H](N[*:1])C(=O)[*:2]].K.F.V.[am]}$$$$V2.0)    50
CC(C)[C@H](NC(=O)[C@H](Cc1ccccc1)NC(=O)[C@H](CCCCN)NC(=O)[C@H](CC1CCCCC1)NC(=O)[C@H](Cc1c[nH]c2ccccc12)NC(=O)[C@H](CCCNC(=N)N)NC(=O)[C@@H](Cc1ccc2ccccc2c1)NC(=O)[C@@H](N)Cc1c[nH]cn1)C(N)=O [Peptide 10] (HELM PEPTIDE1{H.[O=C([C@@H](Cc1ccc2ccccc2c1)N[*:1])[*:2]].R.W.[Cha].K.F.V.[am]}$$$$V2.0)    6.25
CC(C)[C@H](NC(=O)[C@H](Cc1ccccc1)NC(=O)[C@H](CCCCN)NC(=O)C1(NC(=O)[C@H](Cc2c[nH]c3ccccc23)NC(=O)[C@H](CCCNC(=N)N)NC(=O)[C@@H](Cc2ccc3ccccc3c2)NC(=O)[C@@H](N)Cc2c[nH]cn2)CC1)C(N)=O [Peptide 4] (HELM PEPTIDE1{H.[O=C([C@@H](Cc1ccc2ccccc2c1)N[*:1])[*:2]].R.W.[O=C(C1(N[*:1])CC1)[*:2]].K.F.V.[am]}$$$$V2.0)    100

Moving on to the next molecule.
In one line, give reported MIC 100 of the entry CC(C)[C@H](NC(=O)[C@H](Cc1ccccc1)NC(=O)[C@H](CCCCN)NC(=O)[C@H](Cc1ccccc1)NC(=O)[C@H](Cc1c[nH]c2ccccc12)NC(=O)[C@H](CCCNC(=N)N)NC(=O)[C@@H](Cc1ccc2ccccc2c1)NC(=O)[C@@H](N)Cc1c[nH]cn1)C(N)=O [Peptide 9] (HELM PEPTIDE1{H.[O=C([C@@H](Cc1ccc2ccccc2c1)N[*:1])[*:2]].R.W.F.K.F.V.[am]}$$$$V2.0) .
50
